# Experimental system: Growth hormone secretagogue receptor type 1 (Homo sapiens, UniProt Q92847)
# Sequence (Q92847 whole entry): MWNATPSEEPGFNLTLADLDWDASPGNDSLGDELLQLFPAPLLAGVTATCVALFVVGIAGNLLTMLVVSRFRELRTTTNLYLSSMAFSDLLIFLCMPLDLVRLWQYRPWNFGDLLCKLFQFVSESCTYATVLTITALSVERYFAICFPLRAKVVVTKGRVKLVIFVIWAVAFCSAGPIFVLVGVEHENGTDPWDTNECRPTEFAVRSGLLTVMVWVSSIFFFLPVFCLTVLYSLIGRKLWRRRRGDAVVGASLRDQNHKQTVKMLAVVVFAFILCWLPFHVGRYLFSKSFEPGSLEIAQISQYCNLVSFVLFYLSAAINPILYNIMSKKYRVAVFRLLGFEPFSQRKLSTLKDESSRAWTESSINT
# Procedure summary: SUPPLEMENTARY: Agonist activity at GSHR by FLIPR assay. Same assay as CHEMBL941945
pEC50: −log10 of the molar value.
Recorded endpoint: pEC50

> print(dat)
                                test.smiles  observed.value
1  COc1ccc(N2C[C@@H](C)N[C@@H](C)C2)cc1NS(=O)(=O)c1ccc(-c2cccc(C)n2)cc1F            8.10
2  COc1ccc(N2C[C@@H](C)N[C@@H](C)C2)cc1NS(=O)(=O)c1cccc(-c2cccs2)c1            7.80
3  C[C@@H]1CN(c2ccc(F)c(NS(=O)(=O)c3ccc(-c4ccoc4)c(F)c3)c2)C[C@H](C)N1            7.80
4  COc1ccc(N2C[C@@H](C)N[C@@H](C)C2)cc1NS(=O)(=O)c1cccc2cccc(Cl)c12            8.00
5  COc1ccc(N2C[C@@H](C)N[C@@H](C)C2)cc1NS(=O)(=O)c1ccc(-c2ccsc2)c(C)c1            8.10
6  CC(C)Oc1ccc(N2C[C@@H](C)N[C@@H](C)C2)cc1NS(=O)(=O)c1ccc(-c2cccs2)cc1            7.80
7  COc1ccc(N2C[C@@H](C)N[C@@H](C)C2)cc1NS(=O)(=O)c1ccc(-c2cccc(C)n2)cc1            8.00
8  COc1ccc(NS(=O)(=O)c2ccc(-c3ccoc3)s2)cc1N1C[C@@H](C)N[C@@H](C)C1            7.90
